target: MDM2 SWIB domain from Maylandia zebra (Maylandia zebra); experiment: fluorescence polarisation; displacement: complex of MDM2 (0.2-2 μM) and FITC-p53TAD_(human)^15–26 (15 nM) displaced by increasing unlabeled p53TAD peptide or p53TAD^full-length; KD calculated from IC50 (Nikolovska-Coleska et al. 2004); 20 mM sodium phosphate pH 7.4, 150 mM NaCl, 1 mM TCEP
Where no end group is shown, it is not given here.
measurement-kind: pKd
Keep in mind that pKd stands for -log10 of concentration in molar terms.

Problem: Quick one: pKd of Ac-SQDSFKELWDQLP [Maylandia zebra p53TADP1 p53TAD^15–27] ?
Solution: 5.80
